- SYSTEM_NAME: T1, rMOR-1C1 (rat)
- T1 construct: whole, on cells
- EXPERIMENTAL_PROTOCOL: competition against [3H]DAMGO (~1 nM), membranes of stable CHO transfectants
REPORTED_ENDPOINT: pKi
Just the number, please; pKi means minus log10 of the concentration in mol/L.

Give the measured pKi of YGGFMTSEKSQTPLVTLFKNAIIKNAYKKGE (peptide, UniProt P01189 237-267, looked up, also called B-Endorphin) [β-Endorphin] .
8.06
